# subject-of-test: Perilipin-5 (Homo sapiens) + 1-acylglycerol-3-phosphate O-acyltransferase ABHD5 (Homo sapiens) (UniProt Q00G26+Q8WTS1)
# Sequence (Q00G26 whole entry, looked up, the tested form may be a part): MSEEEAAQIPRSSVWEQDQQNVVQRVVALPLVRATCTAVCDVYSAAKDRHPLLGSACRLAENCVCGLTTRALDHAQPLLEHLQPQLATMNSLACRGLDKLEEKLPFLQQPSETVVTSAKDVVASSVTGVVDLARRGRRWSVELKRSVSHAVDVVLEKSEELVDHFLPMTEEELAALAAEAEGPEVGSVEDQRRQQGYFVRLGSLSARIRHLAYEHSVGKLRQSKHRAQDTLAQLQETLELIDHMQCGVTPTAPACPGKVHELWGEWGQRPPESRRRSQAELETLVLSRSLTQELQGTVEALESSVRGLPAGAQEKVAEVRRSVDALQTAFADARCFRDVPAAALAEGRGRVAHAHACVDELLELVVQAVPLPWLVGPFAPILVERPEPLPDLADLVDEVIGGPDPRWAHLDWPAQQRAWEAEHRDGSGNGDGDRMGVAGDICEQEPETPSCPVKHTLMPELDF
# Sequence (Q8WTS1 whole entry, looked up, the tested form may be a part): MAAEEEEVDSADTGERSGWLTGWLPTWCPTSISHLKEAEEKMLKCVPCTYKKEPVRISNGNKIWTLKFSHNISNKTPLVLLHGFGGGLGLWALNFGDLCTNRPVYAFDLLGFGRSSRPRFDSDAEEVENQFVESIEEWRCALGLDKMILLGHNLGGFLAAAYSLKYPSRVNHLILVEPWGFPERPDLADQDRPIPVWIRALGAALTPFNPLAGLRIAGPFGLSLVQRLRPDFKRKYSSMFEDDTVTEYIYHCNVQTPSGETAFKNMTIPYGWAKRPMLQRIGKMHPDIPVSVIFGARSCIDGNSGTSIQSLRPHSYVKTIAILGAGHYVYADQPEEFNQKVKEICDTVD
# assay-summary: blockers of ABHD5 binding to perilipin-5 – cell lysate, luminescence, proteins expressed in HEK293T, dose response (AID 651733);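 also: split Gaussia princeps luciferase complementation between ABHD5 and MLDP fusion proteins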
# condition-notes: ABHD5-PLIN5 interaction
Active and inactive are the calls of the source. No rule for the calls is given here.
The categories you may choose from are 1 = active, 0 = inactive

compound: CCC(C)NC(=O)Nc1ccc2c(c1)N(C)C(=O)c1ccccc1S2 (stereo not given)
category-label: 1
//
compound: CC(C)c1nnc(NC(=O)c2nc(S(=O)(=O)Cc3ccc(F)cc3)ncc2Cl)s1
category-label: 1
//
compound: COc1cccc2sc(N(CCCN(C)C)C(=O)COc3ccc(Cl)cc3)nc12
category-label: 0
//
compound: CCSc1nnc(NC(=O)c2nc(S(=O)(=O)Cc3ccc(F)cc3)ncc2Cl)s1
category-label: 1

Query: Which outcome was assigned to CCCNC(=O)Nc1ccc2c(c1)N(C)C(=O)c1ccccc1S2 in this test?
Response: 1
